# normalized growth annotations
- assay-procedure: chemical genetic growth profiling, strain panel (AID 1159580);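 also: tested at 20 µM; growth read once vehicle control cultures reached saturation at 30 °C; 1 = growth at the plate median or of vehicle wells; lower values mean less growth of the strain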
- reported-conditions: S. cerevisiae deletion strains, growth OD, locus YGR078C, strain PAC10, active compounds read low
About 2,000 (36%) of roughly 5,500 compounds were called active. Roughly 18% stayed inconclusive and do not appear here. The list shows a part of the results.
parameter: normalized growth

> print(dat)
                                    molecule          parameter  recorded.number
 1  Cc1cc(C(F)(F)F)n2nc(-c3ccc(C(C)(C)C)cc3)cc2n1  normalized growth             1.01
 2           COc1cc2cccc(OC)c(=O)c2c(OC)c1OC  normalized growth            0.998
 3  C[N+]1(C)CCCC(OC(=O)C(O)(c2ccccc2)c2ccccc2)C1 (configuration not stated)  normalized growth                1
 4   O=C(NNC(=O)c1ccc[nH]1)Nc1cc(Cl)cc(Cl)c1  normalized growth                1
 5  Cc1cc(NS(=O)(=O)c2ccc(NC(=O)c3ccccc3)cc2)no1  normalized growth            0.984
 6            CCn1c(=O)[nH]c2cc(Cl)c(Cl)cc21  normalized growth            0.992
 7                  CC(C)OC(=O)Nc1cccc(Cl)c1  normalized growth            0.955
 8       CC(C)(C)c1ccc(S(=O)(=O)/C=C/C#N)cc1  normalized growth           0.0608
 9  CC1CN=C(NC2CCCCC2)S1 (configuration not stated)  normalized growth            0.998
10     CCCn1cnc2c1c(=O)n(CCCCC(C)=O)c(=O)n2C  normalized growth             1.01
11       O=C(Nc1cc(-c2ccccc2)[nH]n1)c1ccccc1  normalized growth            0.936
12          O=C1c2cccc(O)c2C(=O)c2c(O)cccc21  normalized growth            0.669
13            O=c1c(O)c(-c2ccccc2)oc2ccccc12  normalized growth            0.991
14  COc1ccc(CNC(=O)/C=C/c2ccc3[nH]cc(CCN(C)C)c3c2)cc1  normalized growth            0.987
15  C[N+]1(C)C2CCC1CC(OC(=O)C(CO)c1ccccc1)C2 (configuration not stated)  normalized growth             1.02
16           NC(=O)C1=C(O)C(=O)N(C2CCCCC2)C1  normalized growth                1
17                    O=c1[nH]ccc2c(O)cccc12  normalized growth                1
18  COC(=O)C[C@H]1C(C)(C)[C@H](O)[C@@H]2CC3=C4CC(O)O[C@@H](c5ccoc5)[C@]4(C)CCC3[C@@]1(C)C2=O (some centres not stated)  normalized growth             1.02
19  CCCC(=O)Nc1ccc(OCC(O)CNC(C)C)c(C(C)=O)c1 (configuration not stated)  normalized growth             1.03
20  Cc1ccc(S(=O)(=O)N2CCN(CCOc3ccccc3)CC2)cc1  normalized growth            0.993
21  FC(F)(F)c1cc(-c2ccco2)nc2cc(-c3ccco3)nn12  normalized growth            0.958
22  COC(=O)c1cccc([N+](=O)[O-])c1-c1c(C(=O)OC)cccc1[N+](=O)[O-]  normalized growth             1.03
23  CC(NC(C)(C)C)C(=O)c1cccc(Cl)c1 (configuration not stated)  normalized growth             1.01
24  CC(=O)Nc1ccc(S(=O)(=O)NCCCN2CCN(Cc3ccccc3)CC2)cc1Cl  normalized growth            0.983
25   Nc1c(Cl)cc(C(=O)Nc2cc(Cl)cc(Cl)c2)cc1Cl  normalized growth            0.977
26  O=C(O)c1cccc([N+](=O)[O-])c1C(=O)Nc1ccc(F)cc1  normalized growth             1.01
27         O=c1c(O)c(-c2ccccc2)oc2cc(O)ccc12  normalized growth            0.586
28                      CN1CCC[C@H]1c1cccnc1  normalized growth             1.04
29  CCCCC#Cc1ccc(C(=O)NNC(=O)Nc2cc(Cl)cc(Cl)c2)o1  normalized growth                1
30  CC(=O)OCC1=C(C(=O)O)N2C(=O)[C@@H](NC(=O)CSc3ccncc3)[C@H]2SC1  normalized growth            0.989
31             Cc1ccc(S(=O)(=O)N2CCCCCC2)cc1  normalized growth            0.985
32        COc1cccc(C2SCc3cc(C)c(C)cc3CS2)c1O  normalized growth             1.01
33  COC(=O)[C@H](NC(=O)c1cc(-c2ccccc2)nc2ccccc12)c1ccccc1  normalized growth            0.984
34   COc1cc(O)c2c(c1)C(=O)c1cc(C)cc(O)c1C2=O  normalized growth            0.989
35           CC(=O)N[C@H](C(=O)O)C(C)(C)SN=O  normalized growth             1.02
36  Cc1onc(-c2c(Cl)cccc2Cl)c1C(=O)N1CCN(c2ncnc3scc(-c4ccccc4)c23)CC1  normalized growth                1
37  O=S(=O)(c1ccc(Cl)cc1)N1CCN(Cc2ccccc2)CC1  normalized growth            0.992
38  COc1ccc2c(c1)C13CCCCC1C(C2)N(C)CC3 (configuration not stated)  normalized growth            0.995
39          CCOC(=O)c1ccc(NC(=S)N2CCOCC2)cc1  normalized growth             0.99
40  C[N+]12CCC(CC1)C(OC(=O)C(O)(c1ccccc1)c1ccccc1)C2 (configuration not stated)  normalized growth            0.983
41      Cn1nccc1NS(=O)(=O)c1ccc(C(C)(C)C)cc1  normalized growth            0.985
42       Cc1cc(O)c2c(c1)C(=O)c1cccc(O)c1C2=O  normalized growth            0.964
43  O=Nc1c(-c2c(O)[nH]c3ccccc23)[nH]c2ccccc12  normalized growth            0.985
44  O=C(Nc1ccc([N+](=O)[O-])cc1Cl)c1cc(Cl)ccc1O  normalized growth            0.948
45  Cc1ccc(S(=O)(=O)N2CCC(C(c3ccccc3)c3ccccc3)CC2)cc1  normalized growth            0.972
46  CCCN1CCCC2Cc3[nH]ncc3CC21 (configuration not stated)  normalized growth            0.997
47  COC(=O)c1cc(OC)c(OC)cc1NC(=O)Nc1cc(Cl)cc(Cl)c1  normalized growth             1.01
